Cited source for all entries: PubChem BioAssay (NCI)

procedureText: NCI Yeast Anticancer Drug Screen. Data for the mec2-1 strain (AID 157)
experimentalContext: S. cerevisiae mec2-1 strain, at 50.0 µM, hits give high values
The panel holds about 79,000 compounds, 15% with a hit somewhere; the sample as a whole holds those more often.
metric: growth inhibition (%)
Give bare numbers, in %.

See these solved cases before continuing.
COc1cc(C2c3cc4c(cc3OC(C)(O)C2C(C)=O)OCO4)cc(OC)c1OC (stereo unspecified) = -0.15
CC1=C(\C=C/C(C)=C/C=C/C(C)=C/C=C/C=C(C)\C=C\C=C(C)/C=C/C2=C(C)CCCC2(C)C)C(C)(C)CCC1 = 9.35
CNCCc1ccc(O)c2ccc3ccc(OC)c(O)c3c12 = -7.25
O=S(c1ccc(Cl)cc1)c1ccc(Cl)cc1 = 17.9
CC(=O)O[C@H]1C(=O)[C@@]2(C)[C@H]([C@H](OC(=O)c3ccccc3)[C@@]3(O)C[C@H](O)C(C)=C1C3(C)C)[C@]1(OC(C)=O)CO[C@@H]1C[C@@H]2O = -10.9
[Se]=[Mo]=[Se] = -8.3

Please go through the list and note growth inhibition for each molecule.
1. O=C(O)c1ccc(=O)[nH]c1
2. Cc1ccc2c(c1)N(CCCl)c1c(ccc3ccccc13)S2
3. C[CH2][Pb]([CH2]C)([CH2]C)[N]1C(=O)c2c(Cl)c(Cl)c(Cl)c(Cl)c2C1=O
4. O=C(O)CCCC(=O)CCCC(=O)O.[Pb]
5. N#CCCO

Result:
1: 7.85; 2: -10; 3: 34.5; 4: -27.3; 5: 5.05

---

procedureText: NCI Yeast Anticancer Drug Screen. Data for the bub3 strain (AID 167)
experimentalContext: S. cerevisiae bub3 mutant strain, at 50.0 µM, hits give high values
This is part of a sample that, as a whole, favours compounds with a hit. Of some 79,000 tested, about 15% had one in any assay.
Please go through the items and note down their growth inhibition.
Answers are plain numbers, in %.

Some solved entries appear below for comparison.
CN1CCC[N+](C)=C1c1ccc(N(C)C)cc1 = -10.1
COC(=O)C1C(OC(=O)c2ccccc2)CC2CCC1N2C(N)=O (stereo unspecified) = -15.9

Hi team, please reply with growth inhibition for each item in this list.
1. COc1cccc(N2CCNCC2)c1
2. O=C(CCSCCC(=O)N/N=C/c1ccc(N(CCCl)CCCl)cc1)N/N=C\c1ccc(N(CCCl)CCCl)cc1
3. COc1ccc2c(c1)CC1N(C)CCC13CCCCC23 (stereo unspecified)
4. CCC1C(=O)OCC1Cc1cncn1C (stereo unspecified)

Result:
1. -6.6
2. -9.45
3. -11.4
4. -9.95

---

procedureText: NCI Yeast Anticancer Drug Screen. Data for the bub3 strain (AID 167)
experimentalContext: S. cerevisiae bub3 mutant strain, at 50.0 µM, hits give high values
The panel holds about 79,000 compounds, 15% with a hit somewhere; the sample as a whole holds those more often. Active and inactive are the calls of the source. Cut-off read from the data, not from the text of the source: active = growth inhibition above about 70%; inactive = the rest.
Kindly state growth inhibition for each of the entries shown.

Answered examples (2):
COc1cc(N=Nc2ccc([N+](=O)[O-])cc2)ccc1N(CCCl)CCCl = -10.6% (inactive)
CC(C)N([PH2+]N(C(C)C)C(C)C)C(C)C.[C-]#[O+].[C-]#[O+].[C-]#[O+].[C-]#[O+].[C-]#[O+].[Mo] = 6.35% (inactive)

Fill in growth inhibition for each of the 5 compounds listed.
1. O=S(c1ccc(Cl)cc1)c1ccc(Cl)cc1
2. CCC1(C/C=C/Cl)C(=O)NC(=O)NC1=O
3. N[C@@H](Cc1ccc2oc3cc(=O)c4ccccc4c-3nc2c1)C(=O)O
4. CCCCC1(CCSC(=S)OCC)C(=O)NC(=O)NC1=O
5. COc1ccccc1-n1c(C)nc2ccccc2c1=O

Result:
13.6% (inactive)
6.45% (inactive)
28.8% (inactive)
-2.7% (inactive)
19.7% (inactive)
